System: IGROV-1
Assay: NCI tumour cell line growth inhibition, 48 h
The source made the active and inactive calls. Cut-off read from the data, not from the text of the source: active = GI50 up to about 1.1 µM and inactive = higher.
Recorded GI50 for the following compounds

Consider the following illustrative entries.
Compound	Assay System	GI50
CSc1c(C#N)c(O)n(-c2ccc(C)cc2)c(=O)c1C(C)=O	IGROV-1	> 100 µM (inactive)
O=C1Cc2ccccc2N1/N=C\c1ccc(O)cc1	IGROV-1	> 100 µM (inactive)
CC12CCC(C(Nc3cc(C(F)(F)F)cc(C(F)(F)F)c3)C1=O)C2(C)C (stereo not given)	IGROV-1	> 100 µM (inactive)
CN(C)Cc1cc(/N=N/c2ccc(Cl)cc2)ccc1OC(=O)c1ccccc1	IGROV-1	13.2 µM (inactive)
NC(=O)CCC(CCC(N)=O)(CCC(N)=O)[N+](=O)[O-]	IGROV-1	> 100 µM (inactive)

Record C/C=C(\C)C(=O)OC1C(C)=C2C(C1OC(=O)CCCC)C(C)(OC(C)=O)CC(OC(=O)CCCC)C1(O)C2OC(=O)C1(C)O (stereo not given) / IGROV-1, GI50 recorded as 6.85 µM (inactive)

Record COc1cc2c(cc1O)CC1c3c(cc(O)c(OC)c3-2)CCN1C (stereo not given) / IGROV-1, GI50 recorded as > 100 µM (inactive)

Record "CCOC(=O)N1CCC(N[C@@H]2c3cc4c(cc3[C@@H](c3cc(OC)c(O)c(OC)c3)[C@H]3C(=O)OC[C@@H]32)OCO4)CC1" / IGROV-1, GI50 recorded as 2.95 µM (inactive)

Record "O=C(O)C1(Cc2ccc3c(c2)CCC3)Cc2cc3c(cc2C1)CCC3" / IGROV-1, GI50 recorded as > 100 µM (inactive)

Record "CCOC(=O)c1ccc(C(=O)n2ccnc2)[nH]1" / IGROV-1, GI50 recorded as > 100 µM (inactive)
